Taken from patent US20260242478A1.

- SYSTEM: T1, Anti-CD28 Fab (SEQ ID NOs: 696, 697)
- T1 construct: In the phage ELISA the Fab was biotinylated and captured on neutravidin coated plates
- T1 sequence (VH, as listed by the source, chain 1 of 2): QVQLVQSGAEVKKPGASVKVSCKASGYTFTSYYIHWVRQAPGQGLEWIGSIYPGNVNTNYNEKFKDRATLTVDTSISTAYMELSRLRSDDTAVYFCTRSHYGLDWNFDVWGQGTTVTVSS
- T1 sequence (VL, as listed by the source, chain 2 of 2): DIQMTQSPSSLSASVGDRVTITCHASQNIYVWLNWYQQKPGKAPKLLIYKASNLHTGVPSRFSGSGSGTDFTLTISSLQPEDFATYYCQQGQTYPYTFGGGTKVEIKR
- PROCEDURE_TEXT: phage ELISA; biotinylated anti-CD28 Fab on neutravidin plate, bound phage detected with anti-M13-HRP
Where no end group is shown, it is not given here.
In this section, each of the binders is paired with its reported Anti-CD28 Fab signal (phage binding ELISA).

Recorded results for 3 binders are shown here.
| BINDER | VALUE |
| --- | --- |
| YCAGHSAEYMWKCL (cysteine pairing not given here; also: fused to phage pIII, not shown: pIII filament protein of the bacteriophage to which the peptide is fused) [Phage-883] | 1.71 |
| YCEGHLPQYFMKCL (cysteine pairing not given here; also: fused to phage pIII, not shown: pIII filament protein of the bacteriophage to which the peptide is fused) [Phage-890] | 1.7 |
| YCDGHLPEYFLKCL (cysteine pairing not given here; also: fused to phage pIII, not shown: pIII filament protein of the bacteriophage to which the peptide is fused) [Phage-886] | 1.71 |

Query: For the binder YCAGHLPEYLDKCL (cysteine pairing not given here; also: fused to phage pIII, not shown: pIII filament protein of the bacteriophage to which the peptide is fused) [Phage-880] , give its measured Anti-CD28 Fab signal (phage binding ELISA) value.
Result: 1.71

Query: For the binder YCDGHSLAYIAKCL (cysteine pairing not given here; also: fused to phage pIII, not shown: pIII filament protein of the bacteriophage to which the peptide is fused) [Phage-887] , give its measured Anti-CD28 Fab signal (phage binding ELISA) value.
Result: 1.7
